subject.of.test: JAK kinase domains (Homo sapiens, UniProt O60674)
Construct: purchased DiscoverX (KINOMEscan)
Sequence (O60674 840-1132): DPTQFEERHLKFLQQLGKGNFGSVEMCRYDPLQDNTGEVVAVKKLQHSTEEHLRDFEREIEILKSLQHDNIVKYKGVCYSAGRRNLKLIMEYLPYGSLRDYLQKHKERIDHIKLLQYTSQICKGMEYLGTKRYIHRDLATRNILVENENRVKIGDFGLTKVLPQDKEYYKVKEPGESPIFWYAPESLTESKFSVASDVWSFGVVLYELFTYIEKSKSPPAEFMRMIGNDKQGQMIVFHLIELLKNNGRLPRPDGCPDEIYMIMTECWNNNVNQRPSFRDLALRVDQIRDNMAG
experiment: KINOMEscan competitive binding
assay.conditions: 10 µM, n=1; kinase JAK2(Kin.Dom.2); read-out: Percent inhibition JAK2(Kin.Dom.2)
property: inhibition at 10 µM (%)
The answer is to be given in %; state only the numeric part.

Guide cases for inhibition at 10 µM, answers given:
compound	unit.label	assay.value
COc1cc(Nc2nccc(-c3sc(N)nc3-c3cccc(NC(=O)c4c(F)cccc4F)c3)n2)cc(OC)c1OC [Compound 7]	%	0
C[C@@H](Oc1cc(-c2cnc3ccccn23)sc1C(N)=O)c1ccccc1Cl [Compound 8]	%	70.2
Fc1cccc(COc2ccc(Nc3ncnc4c3CN(CCN3CCOCC3)CC4)cc2Cl)c1 [Compound 6]	%	0
Nc1ncc2c(-c3ccncc3)c[nH]c2n1 [Compound 11]	%	0

Next, consider the following compound.
So for Cc1ccc(O)cc1N(C)c1ccnc(Nc2cccc(S(N)(=O)=O)c2)n1 [Compound 4] , the logged inhibition at 10 µM turned out to be 90.7

Measured values drawn from paper PMC9927415 for this set.
